biological target: α2B adrenergic receptor (Homo sapiens); test: PDSP radioligand binding, α2B; settings: read-out: % inhibition at 10 µM; single concentration 10 µM
Sequence (P18089 whole entry): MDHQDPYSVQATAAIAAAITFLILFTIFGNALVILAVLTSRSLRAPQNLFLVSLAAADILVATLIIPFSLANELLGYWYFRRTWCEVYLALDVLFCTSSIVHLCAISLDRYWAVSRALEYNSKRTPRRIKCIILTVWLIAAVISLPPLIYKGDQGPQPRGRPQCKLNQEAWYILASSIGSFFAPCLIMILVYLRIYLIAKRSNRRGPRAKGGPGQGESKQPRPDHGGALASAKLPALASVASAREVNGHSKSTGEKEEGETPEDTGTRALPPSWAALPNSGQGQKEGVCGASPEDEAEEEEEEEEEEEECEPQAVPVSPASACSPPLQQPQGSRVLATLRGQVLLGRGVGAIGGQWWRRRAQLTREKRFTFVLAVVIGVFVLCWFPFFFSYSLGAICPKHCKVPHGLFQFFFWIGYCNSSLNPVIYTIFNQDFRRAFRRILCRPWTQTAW
Quick list: inhibition at 10 µM per entry.
Give the quantity in %, number only.

Consider the worked cases shown below.
smiles-structure: O[C@@H]1[C@H](O)[C@@H]2C[C@@H]2[C@H]1n1cnc2c(NCc3cccc(Cl)c3)ncnc21
readout-number: 42
//
smiles-structure: Clc1cccc(CNc2nc(Cl)nc3[nH]cnc23)c1
readout-number: 95
//
smiles-structure: O[C@@H]1[C@H](O)[C@@H]2C[C@@H]2[C@H]1n1cnc2c(NC(C3CC3)C3CC3)nc(Cl)nc21
readout-number: 15

Okay, next one:
[Q] API: value(readout= inhibition at 10 µM, system= α2B adrenergic receptor (Homo sapiens), query= CNC(=O)[C@@]12C[C@@H]1[C@@H](n1cnc3c(NCc4cccc(Cl)c4)nc(C#Cc4ccccc4Cl)nc31)[C@H](O)[C@@H]2O )
[A] 8

From: paper PMC4032265
